Test system: CD2F1 mice, L1210 leukemia ip, survival T/C
Assay: NCI In Vivo Anticancer Drug Screen. Data for tumor model L1210 Leukemia (intraperitoneal) in CD2F1 (CDF1) mice
Conditions: endpoint: mean survival time; dose: 50.0 mg/kg/injection; schedule: Q01DX009 (ip); vehicle: water; higher = longer survival
Inconclusive results and toxic doses are left out.
ENDPOINT: T/C

As a guide, the following entries are already answered.
COc1ccc(-c2nc3c(N)nc(N)nc3nc2N)cc1OC : 103 % of control
O=C(O)/C=N/NS(=O)(=O)c1ccccc1 : 113 % of control
Nc1nc(N)c(N=Nc2cccc3ccccc23)c(N)n1 : 104 % of control
COc1ccc2ccccc2c1C(=O)CCCc1ccccc1 : 97 % of control

Entry under test: COc1ccc(/C=C(\C)[N+](=O)[O-])cc1OC . Its T/C was 93 % of control

Entry under test: O=c1[nH]cnc2c1ncn2C1OC(CO)C(O)C1O.O=c1[nH]cnc2c1ncn2C1OC(CO)C(O)C1O.[Cl][Pt][Cl] (stereo unspecified) . Its T/C was 101 % of control
